IC50 values recorded for ROCK2 (Homo sapiens, UniProt O75116)
Where a name gives a salt, the structure may show the parent alone.

Molecule	IC50
COc1cc(F)cc(CN2CCN(c3cc(C)c(-c4cn[nH]c4)cn3)C2=O)c1 [Example 464]	20.1 to 200 nM
COc1cccc(C(CC(=O)O)N2CCN(c3ccc(-c4cn[nH]c4)c(OC)c3)C2=O)c1 (stereo not shown) [Example 19, TFA]	20.1 to 200 nM
COc1cc(N2C(=O)CN(Cc3cc(F)ccc3F)C2=O)ccc1-c1cn[nH]c1 [Example 92, TFA]	200 to 2000 nM
COc1cccc(C(CO)N2CCN(c3ccc(-c4cn[nH]c4)c(C)c3)C2=O)c1 (single isomer, unassigned) [Example 165]	2.1 to 20 nM
COc1cccc(CN2CCN(c3ccc(-c4cn[nH]c4)cc3OC)C2=O)c1 [Example 10]	2.1 to 20 nM
COc1cccc(Cn2ccn(-c3ccc(-c4cn[nH]c4)c(C)n3)c2=O)c1 [Example 187]	2.1 to 20 nM
O=C1N(Cc2cccnc2)CCN1c1ccc(-c2cn[nH]c2)cn1 [Example 242]	200 to 2000 nM
COc1cc(F)cc(C(C)n2ccn(-c3ccc(-c4cn[nH]c4)cc3)c2=O)c1 (single isomer, unassigned) [Example 367]	20.1 to 200 nM
COc1nc(-n2ccn(Cc3cc(F)cc(OCC4CC4)c3)c2=O)ccc1-c1cn[nH]c1 [Example 395]	2.1 to 20 nM
O=C1N(c2ccc(-c3cn[nH]c3)cc2)CC(CO)N1Cc1ccccc1 (stereo not shown) [Example 38]	2.1 to 20 nM
COc1nc(N2CCN(Cc3cccc(OCC4CC4)c3)C2=O)ccc1-c1cn[nH]c1 [Example 475]	< 2 nM
COc1cccc(CN2CCN(c3ccc(-c4c[nH]nc4C)c(OC)n3)C2=O)c1 [Example 320]	2.1 to 20 nM
COc1cc(F)cc(C(C)n2ccn(-c3ccc(-c4cn[nH]c4)cn3)c2=O)c1 (single isomer, unassigned) [Example 394]	20.1 to 200 nM
O=C1N(Cc2cccc(F)c2)CCN1c1ccc(-c2cnoc2)cc1 [Example 61]	200 to 2000 nM
O=c1n(CCc2ccccc2)ccn1-c1ccc(-c2cn[nH]c2)cc1 [Example 335]	20.1 to 200 nM
COc1cccc(C(C)n2ccn(-c3ccc(-c4cn[nH]c4)cc3)c2=O)c1 (single isomer, unassigned) [Example 339]	< 2 nM

====

IC50 values recorded for ROCK2 (Homo sapiens, UniProt O75116)

Molecule	IC50
COc1cc(N2C(=O)CN(Cc3ccccc3Cl)C2=O)ccc1-c1cn[nH]c1	200 to 2000 nM
COc1cccc(C(C)N2CCN(c3ccc(-c4cn[nH]c4)c(C)n3)C2=O)c1 (single isomer, unassigned)	200 to 2000 nM
COc1nc(-n2ccn(Cc3cccc(F)c3F)c2=O)ccc1-c1cn[nH]c1	2.1 to 20 nM
COc1cccc(C(CCO)N2CCN(c3ccc(-c4cn[nH]c4)c(OC)c3)C2=O)c1 (centres unmarked)	2.1 to 20 nM
CCc1cc(N2CCN(Cc3ccc(F)c(OC)c3)C2=O)ncc1-c1cn[nH]c1	200 to 2000 nM

====

IC50 values recorded for UniProtKB O75116
Endpoint label: IC50

Molecule	Reported measurement
O=C1CN(c2ccc(-c3cn[nH]c3)cc2)C(=O)N1Cc1ccccc1	0.0201 to 0.2 µM
COc1cccc(C(C(=O)NCC(C)C)N2CCN(c3ccc(-c4cn[nH]c4)cc3)C2=O)c1 (single isomer, unassigned)	0.0021 to 0.02 µM
COc1nc(-n2ccn(Cc3cccc(OCC4CC4)c3)c2=O)ccc1-c1cn[nH]c1	< 0.002 µM
CCc1nc(N2CCN(C(C)c3cc(F)cc(OC)c3)C2=O)ccc1-c1cn[nH]c1 (single isomer, unassigned)	< 0.002 µM
COc1cccc(C(C)n2ccn(-c3ccc(-c4cn[nH]c4)c(C)n3)c2=O)c1 (single isomer, unassigned)	< 0.002 µM
COc1cccc(CN2CCN(c3ccc(-c4cn[nH]c4)c(C#N)c3)C2=O)c1	0.2 to 2 µM
COc1cc(F)cc(CN2C(=O)N(c3ccc(-c4cn[nH]c4)cn3)CC2(C)C)c1	0.0021 to 0.02 µM
